All values here come from patent US20190248900A1.

- Test target: T1, M12
- T1 construct: also called PD1 mutant M12
- Test: scFv-phage ELISA
Provide the recorded OD490 for the entries that follow.
Would you mind answering with just the numeric figure?

// recorded OD490 for PD1-31F3 (antibody, V domains shown, scFv-phage in the screening ELISA; later whole IgG) VH: QVQLVQSGAEVKKPGSSVKVSCKASGGTFSSYAISWVRQAPGQGLEWMGGIIPLFSTAHSAQKFQGRVTITADESSSTAYMELSSLRSEDTAVYYCAKHKGLPFDWSPDGFDTWGQGTMVTVSS VL: QFVLTQPPSVSGAPGQRVIISCTGSSSNIGAGYDVHWYQQLPGTAPKVLIYGNSDRPSGVPDRFSASKSATSASLAITGLQAEDEADYYCQSYDSSLSGYVFGTGTKVTVL : 2.6

The binder identified as PD1-49B9 (antibody, V domains shown, scFv-phage in the screening ELISA; later whole IgG) VH: QMQLVESGGGLVQPGRSLRLSCAASGFTFEDYAMHWVRQPPGKGLEWVSSISWNSHNIAYADSVKGRFTISRDNSKNSLYLQMNSLRAEDTAVYYCSTSGLGVHAWGQGTMVTVSS VL: QSALTQPPSASGSPGQSVTISCTGTSSDVGGYNYVSWYQQHPGKAPKLMIYEVSKRPSGVPDRFSGSKSGNTASLTVSGLQPEDEADYYCSSFARNSNYVFGTGTKVTVL registered its OD490 at 3.9
